Assign protein stability index to each entry below.
B1: CDC14A (parent)
chain: GPHPKSKIENGYPLHAPEAYFPYF

Variants of: B1
assay: protein stability index of a GFP-peptide fusion (GPS, HEK-293T) (PSI 1-6); higher = more stable;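 note: lentivirally expressed fusions sorted by FACS into six bins by GFP to DsRed ratio, PSI derived from sequencing read proportions per bin multiplied by bin number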
measurementConditions: c terminus: a fixed tail appended
One number for each entry.

• GPHPKSKIVNGYPLHAPEAYFPYF [E9V] = 1.81

Dear colleague, could you send me protein stability index for each of the items below? Thanks.
1. GPHVKSKIENGYPLHAPEAYFPYF [P4V]
2. GPHPKSKIENGYPLHAPEAYFPYG [F24G]
3. GPHPKSKIENGYDLHAPEAYFPYF [P13D]
4. GPHPKSKIENHYPLHAPEAYFPYF [G11H]
5. GPHPKSKIEWGYPLHAPEAYFPYF [N10W]
6. GPHPKSKIENGYPLHAPEKYFPYF [A19K]
7. GPYPKSKIENGYPLHAPEAYFPYF [H3Y]

2.84
3.09
2.81
2.17
1.89
2.51
1.9
